Cited source: paper PMC8330735

- Tgt: human recombinant COX-2 (Homo sapiens, UniProt P35354)
- Sequence (P35354 18-604): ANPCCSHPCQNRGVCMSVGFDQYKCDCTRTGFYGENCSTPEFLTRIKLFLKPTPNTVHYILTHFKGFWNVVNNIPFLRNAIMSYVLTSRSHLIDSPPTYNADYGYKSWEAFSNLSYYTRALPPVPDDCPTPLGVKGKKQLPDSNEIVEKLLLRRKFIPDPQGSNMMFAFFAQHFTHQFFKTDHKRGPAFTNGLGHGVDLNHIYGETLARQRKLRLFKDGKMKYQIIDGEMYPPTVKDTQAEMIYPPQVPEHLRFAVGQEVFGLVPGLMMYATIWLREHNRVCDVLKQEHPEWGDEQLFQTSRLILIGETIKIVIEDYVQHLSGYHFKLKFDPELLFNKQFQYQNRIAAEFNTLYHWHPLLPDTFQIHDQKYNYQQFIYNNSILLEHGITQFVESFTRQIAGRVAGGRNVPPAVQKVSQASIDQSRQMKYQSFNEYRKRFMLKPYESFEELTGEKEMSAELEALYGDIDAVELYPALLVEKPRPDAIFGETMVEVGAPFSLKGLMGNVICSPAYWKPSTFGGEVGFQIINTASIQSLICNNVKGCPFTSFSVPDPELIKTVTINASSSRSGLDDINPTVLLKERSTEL
- Assay Info: In vitro COX-2 inhibitory assay (colorimetric Cayman kit)
- Test Parameters: COX-1 IC50/COX-2 IC50
Readout Name: Selectivity Index (SI)

Answered examples (2):
O=C(CSc1nc2ccccc2c(=O)n1NC(=O)Cc1ccccc1)NNC(=O)c1ccc(Cl)cc1 [14d]	314.00
CN1c2ccccc2C(=O)N(NC(=O)Cc2c[nH]c3ccccc23)C1c1ccc(Cl)cc1 (centres unmarked)	317.00

(P) CN1c2ccccc2C(=O)N(NC(=O)Cc2c[nH]c3ccccc23)C1c1ccc([N+](=O)[O-])cc1 (centres unmarked)
(Q) CC(C)Cc1ccc(C(C)C(=O)NN2C(=O)c3ccccc3N(C)C2c2ccccc2)cc1 (centres unmarked)
Between P and Q , which one shows the smaller Selectivity Index (SI) number? The response must carry the label of the picked entry.
P
